- assay_method_text: Testosterone clearance after intravenous bolus in pigs (Example 13)
- Format: in vivo, domestic weanling pig
- condition_set: pig, plasma, bolus dose of intravenous testosterone
endpoint_name: clearance

Looking up C[C@]12CC[C@H]3[C@@H](CCC4=CC(=O)CC[C@@]43C)[C@@H]1CC[C@@H]2O [testosterone] , I found its clearance recorded as 11.1 mL/min/kg

Values compiled from patent US6818226B2.
